- System: Escherichia coli TOP10
- assay-explanation: shrunken log2 fold change of peptide-encoding DNA abundance (4.5 h post-induction vs induction); higher = less antimicrobial activity (less host growth inhibition)
- condition-details: time post-induction: 4.5 h; library: site-saturation at positions 5, 18, 19, 20
property-name: shrunken log2 fold change

Would you please look over these solved cases?
{"columns": ["residue-codes", "shrunken log2 fold change"],
 "data": [
  ["RRIRLRPPRLPRPRPRPQVMPRP", -0.0202],
  ["RRIRRRPPRLPRPRPRPPKEPRP", 0.0931],
  ["RRIRARPPRLPRPRPRPKMIPRP", -0.0208],
  ["RRIRHRPPRLPRPRPRPIAYPRP", -0.149],
  ["RRIRSRPPRLPRPRPRPVTVPRP", -0.057]
]}

## Input Would you mind telling me what shrunken log2 fold change value was observed for RRIRMRPPRLPRPRPRPGNEPRP ?
## Output 1.05

## Input Proceed to RRIRERPPRLPRPRPRPELPPRP
## Output -0.0646

## Input What do you have for RRIRCRPPRLPRPRPRPKSNPRP ?
## Output -0.274

## Input How about this sequence: RRIRVRPPRLPRPRPRPIGLPRP
## Output -0.0479

## Input Another sequence: RRIRQRPPRLPRPRPRPHTPPRP
## Output -0.147

## Input Next record, please: RRIRNRPPRLPRPRPRPQGWPRP
## Output 0.114

## Input One more sequence: RRIRVRPPRLPRPRPRPKCGPRP
## Output 0.0731

## Input Quick one: RRIRPRPPRLPRPRPRPDLIPRP
## Output -0.036

## Input Further, for RRIRHRPPRLPRPRPRPKGCPRP ?
## Output 0.031

----------
- Tested on: Escherichia coli TOP10
- assay-explanation: shrunken log2 fold change of peptide-encoding DNA abundance (4.5 h post-induction vs induction); higher = less antimicrobial activity (less host growth inhibition)
- condition-details: time post-induction: 4.5 h; library: site-saturation at positions 5, 18, 19, 20
The class of a record is decided solely by its measured shrunken log2 fold change; consult low = under -0.1, mid = from -0.1 up to 0.004, high = 0.004 and over

Field: example entries. Status: answers known.
{"columns": ["residue-codes", "study-system", "cat"],
 "data": [
  ["RRIRTRPPRLPRPRPRPMDVPRP", "Escherichia coli TOP10", "low"],
  ["RRIRDRPPRLPRPRPRPVDSPRP", "Escherichia coli TOP10", "mid"]
]}

Now, please, on to the next sequence.
## Input Please let me know in which category the item RRIRARPPRLPRPRPRPMCQPRP belongs.
## Output high

----------
- Test system: Escherichia coli TOP10
- assay-explanation: shrunken log2 fold change of peptide-encoding DNA abundance (4.5 h post-induction vs induction); higher = less antimicrobial activity (less host growth inhibition)
- condition-details: time post-induction: 4.5 h; library: site-saturation at positions 5, 18, 19, 20
Values of shrunken log2 fold change greater than or equal to -0.2 map to label 1; values below map to label 0.

Look over these answered cases.
{"columns": ["residue-codes", "cat"],
 "data": [
  ["RRIRARPPRLPRPRPRPYVKPRP", "label 0"],
  ["RRIRRRPPRLPRPRPRPFGIPRP", "label 1"],
  ["RRIRQRPPRLPRPRPRPQFQPRP", "label 0"]
]}

## Input # check: shrunken log2 fold change of RRIRERPPRLPRPRPRPSLAPRP is greater than or equal to -0.2
## Output label 1

## Input Item: RRIRPRPPRLPRPRPRPNGIPRP
## Output label 1

## Input Please do the same for RRIRRRPPRLPRPRPRPKHAPRP as well.
## Output label 1

----------
- System: Escherichia coli TOP10
- assay-explanation: shrunken log2 fold change of peptide-encoding DNA abundance (4.5 h post-induction vs induction); higher = less antimicrobial activity (less host growth inhibition)
- condition-details: time post-induction: 4.5 h; library: site-saturation at positions 5, 18, 19, 20
Reported shrunken log2 fold change values are given for each entry in this list.
Respond numerically, and do not add a unit to the figure.

Below, 2 sequences whose answers are already recorded.
{"columns": ["residue-codes", "experimental-result"],
 "data": [
  ["RRIRMRPPRLPRPRPRPAMTPRP", 1.35],
  ["RRIRNRPPRLPRPRPRPGFNPRP", -0.207]
]}

Now consider a different sequence.
## Input Report shrunken log2 fold change for RRIRRRPPRLPRPRPRPDIKPRP please.
## Output -0.374

----------
- System: Escherichia coli TOP10
- assay-explanation: shrunken log2 fold change of peptide-encoding DNA abundance (4.5 h post-induction vs induction); higher = less antimicrobial activity (less host growth inhibition)
- condition-details: time post-induction: 4.5 h; library: site-saturation at positions 5, 18, 19, 20
property-name: shrunken log2 fold change
Just the number, please.

## Input For the sequence shown here, RRIRDRPPRLPRPRPRPWCKPRP , give the reported shrunken log2 fold change.
## Output -0.171

## Input Continue with RRIRQRPPRLPRPRPRPLCAPRP
## Output 0.172

## Input Can you check RRIRDRPPRLPRPRPRPFAIPRP next?
## Output -0.0496

## Input Please answer likewise for RRIRSRPPRLPRPRPRPLWDPRP
## Output -0.134

## Input Also RRIRWRPPRLPRPRPRPYTIPRP ?
## Output -0.606

## Input // same read-out, input: RRIRTRPPRLPRPRPRPYGMPRP
## Output -0.0576

## Input One more sequence: RRIRKRPPRLPRPRPRPKVWPRP
## Output 0.354

----------
- Tested on: Escherichia coli TOP10
- assay-explanation: shrunken log2 fold change of peptide-encoding DNA abundance (4.5 h post-induction vs induction); higher = less antimicrobial activity (less host growth inhibition)
- condition-details: time post-induction: 4.5 h; library: site-saturation at positions 5, 18, 19, 20
Entries and their measured shrunken log2 fold change follow.
// no unit string in output, number only

Example cases with answers are listed next.
{"columns": ["residue-codes", "study-system", "experimental-result"],
 "data": [
  ["RRIRNRPPRLPRPRPRPVHIPRP", "Escherichia coli TOP10", -0.15],
  ["RRIRFRPPRLPRPRPRPRVHPRP", "Escherichia coli TOP10", -0.0984],
  ["RRIRFRPPRLPRPRPRPGSNPRP", "Escherichia coli TOP10", -0.624],
  ["RRIRYRPPRLPRPRPRPDKGPRP", "Escherichia coli TOP10", -0.0723],
  ["RRIRQRPPRLPRPRPRPRNMPRP", "Escherichia coli TOP10", -0.211],
  ["RRIRKRPPRLPRPRPRPMFDPRP", "Escherichia coli TOP10", 0.166]
]}

## Input Data request, read-out shrunken log2 fold change, for RRIRPRPPRLPRPRPRPRDHPRP
## Output 0.279

## Input Okay, and RRIRWRPPRLPRPRPRPISYPRP ?
## Output -0.0222

## Input And then RRIRWRPPRLPRPRPRPMWNPRP , what is it?
## Output -0.0699

## Input Repeat with RRIRNRPPRLPRPRPRPICRPRP
## Output -0.0024

## Input Please give the result for RRIRYRPPRLPRPRPRPMCYPRP too.
## Output -0.399

## Input Please give the result for RRIRRRPPRLPRPRPRPHKIPRP too.
## Output -0.182

----------
- System: Escherichia coli TOP10
- assay-explanation: shrunken log2 fold change of peptide-encoding DNA abundance (4.5 h post-induction vs induction); higher = less antimicrobial activity (less host growth inhibition)
- condition-details: time post-induction: 4.5 h; library: site-saturation at positions 5, 18, 19, 20
property-name: shrunken log2 fold change
Give only the figure.

Solved cases below.
{"columns": ["residue-codes", "shrunken log2 fold change"],
 "data": [
  ["RRIRWRPPRLPRPRPRPKITPRP", 0.0282],
  ["RRIRLRPPRLPRPRPRPDEMPRP", 0.123],
  ["RRIRKRPPRLPRPRPRPLWEPRP", 0.163]
]}

## Input Please report the recorded shrunken log2 fold change for RRIRKRPPRLPRPRPRPQRKPRP .
## Output 0.71

## Input Next sequence: RRIRNRPPRLPRPRPRPRKIPRP
## Output 0.39

## Input Entry to check: RRIRQRPPRLPRPRPRPVKAPRP
## Output 0.198

----------
In this section, each of the sequences is paired with its reported shrunken log2 fold change.
- System: Escherichia coli TOP10;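 further: peptides expressed intracellularly from a pBAD plasmid library in pooled LB shake-flask culture, induced with 0.3% L-arabinose, DNA abundance read by NGS, three biological replicates, DESeq2 with apeglm shrinkage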
- assay-explanation: shrunken log2 fold change of peptide-encoding DNA abundance (4.5 h post-induction vs induction); higher = less antimicrobial activity (less host growth inhibition)
- condition-details: time post-induction: 4.5 h; library: site-saturation at positions 5, 18, 19, 20
Give your answer as a number; write no unit.

Past entries and their recorded results:
{"columns": ["residue-codes", "shrunken log2 fold change"],
 "data": [
  ["RRIRTRPPRLPRPRPRPRWVPRP", 0.216],
  ["RRIRLRPPRLPRPRPRPLKTPRP", -0.0135]
]}

## Input Which shrunken log2 fold change is reported for this sequence? RRIRPRPPRLPRPRPRPNKQPRP
## Output 0.0754
